B1: Far upstream element-binding protein 3, residues 75 to 150; numbered along this chain, Q96I24 (parent)
chain: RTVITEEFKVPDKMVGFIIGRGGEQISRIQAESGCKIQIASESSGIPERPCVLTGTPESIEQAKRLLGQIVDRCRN

variants of: B1; assay: abundance fitness (aPCA) (normalised: wild type 0, dead -1); higher = more abundant; growth selection in yeast, the domain comes from the species named; settings: Homo sapiens
// n strictly below -0.1 in abundance fitness; y otherwise

Query: Quick check: does RTVITEEFKVPDKMVGFIIGRGGEQISRIQAESGCKIQIASESSGIPERPCVLTGTPESIEQARRLLGQIVDRCRN have abundance fitness greater than or equal to -0.1?
Reply: y

Query: Has RTVITEEFKVPDKMVGFIIGRGGEQISRIQAESGCKIQIASESSGIPERPCVLTGTPESIEQAKRLCGQIVDRCRN a recorded abundance fitness greater than or equal to -0.1?
Reply: n

Query: Please indicate if the recorded abundance fitness for RTVITEEFKVPDKMVGFIIGRGGEQISRIQAESGCKIQIASESSGIPERPCVLTGTPESIEQAWRLLGQIVDRCRN meets or exceeds -0.1.
Reply: n

Query: Confirm if abundance fitness reported for the variant RTVITECFKVPDKMVGFIIGRGGEQISRIQAESGCKIQIASESSGIPERPCVLTGTPESIEQAKRLLGQIVDRCRN is -0.1 or above.
Reply: n

Query: Reported abundance fitness at or above -0.1? RTVITEEFKVPDKMVGFIIGRGGEQISRIQAESGCKIQIASESSGIPERPCVLTGTPESIEQAKRLLGQIVQRCRN
Reply: y

Query: Hi team, for RTVITEEFKVPDKMVGFIIGRGGEQISRIQAESGCKIQIASESSGIPERPCVLTGTPESIEQAKRLLGQIVIRCRN , is the recorded abundance fitness at or above -0.1?
Reply: n

Query: Confirm if abundance fitness reported for the variant RTVITEEFKVPDKMVGFIIGRGGEQISRIQAESGCKIQIASESSGIPERPCVLTGTPESIEQAKRDLGQIVDRCRN is -0.1 or above.
Reply: n

Query: Is reported abundance fitness greater than or equal to -0.1 here: RTVITEEFKVPDKMVGFIIGRGGEQISRIQAESGCKIQIASESSGGPERPCVLTGTPESIEQAKRLLGQIVDRCRN
Reply: y

Query: Does abundance fitness meet or surpass -0.1 for RTVITEEFKVPDYMVGFIIGRGGEQISRIQAESGCKIQIASESSGIPERPCVLTGTPESIEQAKRLLGQIVDRCRN ?
Reply: y

Query: Entry RTVITEEFKVPDKMVGFIIGRGGEQFSRIQAESGCKIQIASESSGIPERPCVLTGTPESIEQAKRLLGQIVDRCRN : is its abundance fitness no less than -0.1?
Reply: n

Query: Determine whether measured abundance fitness meets or exceeds -0.1 for RTVITEEFKVPDKMVGFIIGRGGEQISRIQAESGCKIQIASESSGIPERPCVLTGTYESIEQAKRLLGQIVDRCRN
Reply: n

Query: Does RTVITEEFKVPDKMVGYIIGRGGEQISRIQAESGCKIQIASESSGIPERPCVLTGTPESIEQAKRLLGQIVDRCRN have a reported abundance fitness of at least -0.1?
Reply: y

Query: Please tell me: is the variant RTVITEEFKVPDKMVGFIIGRGGEQPSRIQAESGCKIQIASESSGIPERPCVLTGTPESIEQAKRLLGQIVDRCRN at or over -0.1 in terms of abundance fitness?
Reply: n

Query: Does the reported abundance fitness for RTVITEEFKVPDKMVGFIIGRGGEQISRIQAESGCKGQIASESSGIPERPCVLTGTPESIEQAKRLLGQIVDRCRN fall at or above the -0.1 mark?
Reply: n

Query: # bool: abundance fitness of RTVITEEFKVPDKMVGFIIGEGGEQISRIQAESGCKIQIASESSGIPERPCVLTGTPESIEQAKRLLGQIVDRCRN >= -0.1
Reply: y

Query: Please check the record RTVITEEFKVPDKMVGFIIGRGGEQISRIQAESGCKIQIASESSGIPERPQVLTGTPESIEQAKRLLGQIVDRCRN and state if its abundance fitness is at or above -0.1.
Reply: n

Query: Is the recorded value of abundance fitness equal to or greater than -0.1 for this variant? RTVITEEFKVPDKMVGFIIGRGGEQISRIQAESGCKIQIASESSGIPERPCVLTGTPEKIEQAKRLLGQIVDRCRN
Reply: n

Query: Can RTVITEEFKVPDKMVGFIIGRGGEQISRIQAESGCKIQIASESSGIPERPCVLTGTPESIEQAKRLLGQIVDRCRM be said to have abundance fitness at or above -0.1?
Reply: y

Query: Exam item: decide whether the reported abundance fitness for RTVITEEFKVPDKMVGFIIGRGGEQISRIQAESGCKIQIASESSGIPERPCVLTGTPESIEQAKRLLGQIDDRCRN is at least -0.1.
Reply: n

Query: Does abundance fitness meet or surpass -0.1 for RTVITEEFFVPDKMVGFIIGRGGEQISRIQAESGCKIQIASESSGIPERPCVLTGTPESIEQAKRLLGQIVDRCRN ?
Reply: y

Query: Form field: abundance fitness at least -0.1? Entry: RTVITEEFKVPDKMVGFIIGRGGEQISRIQAESGCKIQIASESSGIPERPCVITGTPESIEQAKRLLGQIVDRCRN
Reply: y

Query: Given RTVITEEFKVPDKMVKFIIGRGGEQISRIQAESGCKIQIASESSGIPERPCVLTGTPESIEQAKRLLGQIVDRCRN , state whether its abundance fitness is at least -0.1.
Reply: y

Query: Has RTVITEEFKVPDKMVGFIIGRGGEQISRIQAESGCKIQIASESSGIPERPCVLTGTPESIEQAKRLLGQKVDRCRN a recorded abundance fitness greater than or equal to -0.1?
Reply: n

Query: Check the entry RTVITEEFKVPDKMVGFIIGRGGEQISRIQAESGCKIQIASESKGIPERPCVLTGTPESIEQAKRLLGQIVDRCRN : does abundance fitness equal or exceed -0.1?
Reply: y

Query: Quick check, abundance fitness >= -0.1? RTVITEEFKVPDKMVGFIIGRGGEQISRIQAESGCKIQIASESSGIPERPCVLTGTPEWIEQAKRLLGQIVDRCRN
Reply: n

Query: Given the entry RTVCTEEFKVPDKMVGFIIGRGGEQISRIQAESGCKIQIASESSGIPERPCVLTGTPESIEQAKRLLGQIVDRCRN , answer whether its abundance fitness meets or surpasses -0.1.
Reply: y
